# System: A549
# experiment description: Cytotoxicity against human A549 cells by SRB assay
# Type: functional, cell-based
measured parameter: IC50 (µM)
Report the figure in µM without appending any unit label.

Some entries whose results are on file:
- NC[C@H]1C[C@H](c2cc3ccccc3c3ccccc23)N(Cc2ccccc2)O1 (racemic): 35
- CN1O[C@@H](CN)C[C@@H]1c1ccc2ccc3cccc4ccc1c2c34 (racemic): 11
- CN1O[C@H](CN)C[C@@H]1c1ccc2ccc3cccc4ccc1c2c34 (racemic): 9
- CN1O[C@H]2C(=O)NC(=O)[C@H]2[C@@H]1c1ccc2ccc3cccc4ccc1c2c34 (racemic): 83
- CN1O[C@@H]2C(=O)NC(=O)[C@@H]2[C@@H]1c1ccc2ccc3cccc4ccc1c2c34 (racemic): 328

Switching to the query record.
-- ask Recorded IC50 of NC[C@@H]1C[C@H](c2cc3ccccc3c3ccccc23)N(Cc2ccccc2)O1 (racemic) , please.
-- reply 32
